Molecular target: CquiOR99 (Culex quinquefasciatus, UniProt W0HIQ7)
Sequence (W0HIQ7 1-389): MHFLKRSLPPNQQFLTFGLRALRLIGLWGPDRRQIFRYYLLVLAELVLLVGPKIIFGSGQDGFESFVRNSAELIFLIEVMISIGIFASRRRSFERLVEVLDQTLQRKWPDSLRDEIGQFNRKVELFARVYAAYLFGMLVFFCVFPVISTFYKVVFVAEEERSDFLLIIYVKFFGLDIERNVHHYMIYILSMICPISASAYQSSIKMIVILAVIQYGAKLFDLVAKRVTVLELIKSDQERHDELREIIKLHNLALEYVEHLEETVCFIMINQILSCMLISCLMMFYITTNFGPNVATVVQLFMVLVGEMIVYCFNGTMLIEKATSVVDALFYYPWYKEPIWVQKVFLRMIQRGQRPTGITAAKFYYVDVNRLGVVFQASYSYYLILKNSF
Sequence (Q309I4 1-480 partner): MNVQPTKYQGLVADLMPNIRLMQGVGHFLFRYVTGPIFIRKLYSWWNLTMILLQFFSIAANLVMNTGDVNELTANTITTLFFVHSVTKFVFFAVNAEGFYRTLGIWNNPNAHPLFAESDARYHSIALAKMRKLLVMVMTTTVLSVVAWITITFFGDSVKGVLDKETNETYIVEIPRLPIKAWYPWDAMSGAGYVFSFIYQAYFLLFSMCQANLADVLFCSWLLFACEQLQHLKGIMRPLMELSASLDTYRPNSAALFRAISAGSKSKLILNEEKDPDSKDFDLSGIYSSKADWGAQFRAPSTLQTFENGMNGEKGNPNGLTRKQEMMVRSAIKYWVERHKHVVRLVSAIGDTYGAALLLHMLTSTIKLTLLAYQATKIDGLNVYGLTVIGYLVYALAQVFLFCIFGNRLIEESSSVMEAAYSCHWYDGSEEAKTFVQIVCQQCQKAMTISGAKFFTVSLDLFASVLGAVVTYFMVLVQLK
Let's look at some molecules and their measured pEC50.
When answering, recall that pEC50 equals minus log10 of the concentration in mol/L, and write that number alone.

CCc1ccc(O)cc1	6.13

Now for another entry.
The molecule Cc1ccc(O)cc1 showed pEC50 equal to 4.84

// data source = paper PMC3800558
